The measurements presented in this section are drawn from paper PMC7914897.

Tested on: panel of approximately 60 cancer cell lines
Test: NCI-60 screen (SRB, 48 h), full panel
Conditions: 1 dose 10 µM
endpoint.label: Positive Cytotoxic Effect (cell lines with percent growth < 0 / total)

compound	measured.value
Cc1ccc(S(=O)(=O)OC[C@@]2(C)CC[C@]3(C)CC[C@]4(C)C(=C3C2)C=C[C@@H]2[C@@]3(C)CCCNC(C)(C)[C@@H]3CC[C@]24C)cc1 [Compound 16]	31/60

Would you be so kind as to report Positive Cytotoxic Effect (cell lines with percent growth < 0 / total) for each listed record?
1. Cc1ccc(S(=O)(=O)OC[C@]23CCC(C)(C)C[C@H]2C2=CC[C@@H]4[C@@]5(C)CCCNC(C)(C)[C@@H]5CC[C@@]4(C)[C@]2(C)CC3)cc1 [Compound 15]
2. CC1(C)NCCC[C@]2(C)[C@H]3CC=C4[C@@H]5C[C@@](C)(CO)CC[C@]5(C)CC[C@@]4(C)[C@]3(C)CC[C@@H]12 [Compound 5, azepano-glycyrretol]
3. CC(C)=C1CCC=C2CC[C@]3(C)[C@H](CC[C@@H]4[C@@]5(C)CCCNC(C)(C)[C@@H]5CC[C@]43C)[C@H]21 [Compound 9]
4. C=C(C)[C@@H]1CCC=C2CC[C@]3(C)[C@H](CC[C@@H]4[C@@]5(C)CCCNC(C)(C)[C@@H]5CC[C@]43C)[C@H]21 [Compound 8]
5. CC1(C)CC[C@]2(C(=O)NC(CO)Cc3ccccc3)CC[C@]3(C)C(=CC[C@@H]4[C@@]5(C)CCCNC(C)(C)[C@@H]5CC[C@]43C)[C@@H]2C1 (some centres unmarked) [Compound 13]

Response given:
1. 14/60
2. 2/58
3. 24/58
4. 49/60
5. 1/60

Would you be so kind as to report Positive Cytotoxic Effect (cell lines with percent growth < 0 / total) for each listed record?
1. C[C@H]1[C@H](C)CC[C@]2(C(=O)Nc3ccc4ncccc4c3)CC[C@]3(C)C(=CC[C@@H]4[C@@]5(C)CCCNC(C)(C)[C@@H]5CC[C@]43C)[C@H]12 [Compound 14]
2. CC1(C)NCCC[C@]2(C)[C@H]3CC(=O)[C@H]4[C@@H]5C[C@@](C)(CO)CC[C@]5(C)CC[C@@]4(C)[C@]3(C)CC[C@@H]12 [Compound 17]
3. C[C@H]1[C@H](C)CC[C@]2(CO)CC[C@]3(C)C(=CC[C@@H]4[C@@]5(C)CCCNC(C)(C)[C@@H]5CC[C@]43C)[C@H]12 [Compound 4, azepanouvaol]
4. C=C(C)[C@@H]1CC[C@]2(C)[C@H](CC=C3[C@@H]4[C@@H](C)[C@H](C)CC[C@]4(CO)CC[C@]32C)[C@@]1(C)CCCN [Compound 19]
5. CC1(C)CC[C@]23CC[C@]4(C)[C@H](CC[C@@H]5[C@@]6(C)CCCNC(C)(C)[C@@H]6CC[C@]54C)[C@H]2[C@H]1OC3 [Compound 7, Azepanoallobetulin]

Response given:
42/59
0/59
40/59
28/60
41/58

----------
Tested on: SNB-19 (CNS cancer)
Assay: NCI-60 screen (SRB, 48 h)
Conditions: Homo sapiens, SNB-19, read-out: LC50
Threshold check on CC50: strictly below 6 µM is condition met; on or above 6 µM is condition not met.

Use these answered entries as a reference point.
structure.smiles.string	assigned.label
C[C@H]1[C@H](C)CC[C@]2(CO)CC[C@]3(C)C(=CC[C@@H]4[C@@]5(C)CCCNC(C)(C)[C@@H]5CC[C@]43C)[C@H]12	condition not met
C=C(C)[C@@H]1CC[C@]2(C)[C@H](C=CC3=C4C[C@@](C)(CO)CC[C@]4(C)CC[C@]32C)[C@@]1(C)CCCN	condition met
C=C(C)[C@@H]1CC[C@]2(C)[C@H](CC=C3[C@@H]4[C@@H](C)[C@H](C)CC[C@]4(CO)CC[C@]32C)[C@@]1(C)CCCN	condition not met
CC1(C)NCCC[C@]2(C)[C@H]3C=CC4=C5C[C@@](C)(CO)CC[C@]5(C)CC[C@@]4(C)[C@]3(C)CC[C@@H]12	condition not met

Now consider a different molecule.
Challenge: Please state whether CC50 is below 6 µM for `CC1(C)CC[C@]2(CO)CC[C@]3(C)C(=CC[C@@H]4[C@@]5(C)CCCNC(C)(C)[C@@H]5CC[C@]43C)[C@@H]2C1`
Response given: condition not met
